System: Trypanosoma cruzi
ASSAY DETAILS: GSK_TCAKS: pIC50 Trypanosoma cruzi Imaging: Infected Cells. […] Cells were then washed once with PBS before infection. T. cruzi trypomastigotes, collected at days 5 to 8 after infection from LLC-MK2 parasite infected cultures, were allowed to swim out for 4h at 37C from a centrifuged pellet (2,500 rpm/10 min/room temperature). Trypomastigotes were then collected and counted in a CASY Cell Counter. Trypomastigotes, in supplemented DMEM, were added to H9c2 cultures in a multiplicity of infection of 1 and incubated for 18 h. Cells were washed once with PBS before incubation of the infected H9c2 monolayer with trypsin (Life-Technologies) to detach cells from the flask. Cells were counted in a CASY Cell Counter using a 150 um capillary and their density set at 5 * 10^4 cells per mL in supplemented assay DMEM. Infected H9c2 were dispensed into 384-well poly-lysine coated assay plates at 50uL per well using a Multidrop Combi dispenser. After seeding them, the plates were incubated at 37C, 5% CO2 for 72h. Cultures were then fixed and stained by addition of 50 uL of a solution containing 8% formaldehyde and 4 uM DRAQ5 DNA dye (BioStatus, UK) per well. […] Five images were collected per well for reliable statistical analysis. Automated image analysis was performed with a script developed on Acapella High Content Imaging and Analysis Software (PerkinElmer). Output: percentage of infected cells per well as a second infection marker.
Type: functional, organism-based, Rattus norvegicus
APPLIED CONDITIONS: H9c2, 4 h
Friendly reminder: IC50 below 2 µM is label 1, at or above is label 0.

Please review the entries below; each comes with its answer.
CCC(=O)N1N=C(c2ccc3c(c2)CCCC3)Sc2c1ncn2C(=O)CC = label 0
O=c1cc(NCCCNCc2cc(C(F)(F)F)cs2)[nH]c2ccccc12 = label 0
COc1cccc(NS(=O)(=O)c2ccc3ncc(C(=O)NCCC(C)C)c(O)c3c2)c1 = label 0

Dear reviewer, please state whether N#Cc1cccc(Nc2nccc(N3CCC(NS(=O)(=O)c4cccc(C#N)c4)CC3)n2)c1 has IC50 strictly beneath 2 µM.
label 0

Dear reviewer, please state whether NS(=O)(=O)c1ccc(Nc2nccc(-c3cnn4ncccc34)n2)cc1 has IC50 strictly beneath 2 µM.
label 0

Dear reviewer, please state whether CC(C)Nc1nc(Cl)nc2ccccc12 has IC50 strictly beneath 2 µM.
label 0

====

Tested on: Trypanosoma brucei brucei
ASSAY DETAILS: GSK_TCAKS: pIC50 Trypanosoma brucei viability assay using luminiscence. Assay plates (1536-well) were prepared. T. brucei cultures were harvested and counted in a CASY cell counter. A parasite suspension was prepared at a final concentration of 5 * 10^4 cells/mL in complete HMI9 medium and 6uL was dispensed to all wells containing compounds using a Multidrop Combi dispenser. 6uL of HMI9 media with 0.4% DMSO were dispensed to control columns. Plates were incubated for 24 h at 37C, 5% CO2 then tempered for 10 min at room temperature. ATP content was quantified by adding 4 uL of CellTiter-Glo Reagent (Promega) according to the manufacturer's instructions. Luminescence was measured using a ViewLux.
Format: functional, organism-based
APPLIED CONDITIONS: Lister 427, CASY
ENDPOINT LABEL: IC50 (µM)
Give the value, in units of µM, as a plain number.

CCOC(=O)c1cn[nH]c1S(=O)(=O)N1CCC1c1ccccc1 (stereo not given) = 0.794

Write down IC50 measured for item CCS(=O)(=O)Nc1ccc(C2=NN(C(=O)c3cccs3)C(c3ccccc3OC)C2)cc1 (stereo not given)
15.8

Write down IC50 measured for item CN(C)Cc1ccc(N2CCC(NS(=O)(=O)c3ccc(Cl)cc3)CC2)cc1
31.6

Write down IC50 measured for item CC(C)c1cc(Nc2cc(Cc3ccccc3)nc(N[C@H]3CC[C@H](O)CC3)n2)n[nH]1
0.1

Write down IC50 measured for item COc1ccc(CN(C)Cc2ccncc2)cc1-c1ccc(S(=O)(=O)NC2CCC2)s1
20

Write down IC50 measured for item Cc1occc1C(=O)Nc1ccccc1C(=O)Nc1nccs1
0.501

====

System: Leishmania donovani
ASSAY DETAILS: GSK_TCAKS: pIC50 Leishmania donovani Imaging: Amastigotes/Macrophages. Assay plates (384-well) were prepared by adding 250nL of compound to each well. For single shot assay, the final compound concentration was 5 uM. […] Automated image analysis was performed with a script developed on Acapella High Content Imaging and Analysis Software (PerkinElmer). Output: Average number of amastigotes per macrophage cell were reported for each well.
Format: functional, organism-based, Homo sapiens
APPLIED CONDITIONS: THP-1
Friendly reminder: IC50 below 2000 nM is 1, at or above is -1.

Please review the entries below; each comes with its answer.
O=C1CN(C2CCCc3c(OCc4ccncc4)cccc32)C(=O)N1C1CCCCC1 (stereo unspecified) = -1
Cn1ccnc1CN1CCc2[nH]cnc2C1c1ccccc1OCc1ccccc1 (stereo unspecified) = -1

Dear reviewer, please state whether CCCc1cc(N)nc(-c2cc(CCC)cc(N)n2)c1 has IC50 strictly beneath 2000 nM.
1

Dear reviewer, please state whether COc1ccccc1CNc1cc(C2CC2)nc(-c2nccn2C)n1 has IC50 strictly beneath 2000 nM.
1

Dear reviewer, please state whether c1cc(-c2ncc(-c3ccn[nH]3)s2)ccn1 has IC50 strictly beneath 2000 nM.
-1

Dear reviewer, please state whether CN(C)CCOc1ccc(N2CCN(S(=O)(=O)c3ccc(Cl)cc3)CC2)cc1 has IC50 strictly beneath 2000 nM.
-1

====

// reported IC50 per item
Test system: Leishmania donovani
ASSAY DETAILS: GSK_TCAKS: pIC50 Leishmania donovani Imaging: Amastigotes/Macrophages. Assay plates (384-well) were prepared by adding 250nL of compound to each well. For single shot assay, the final compound concentration was 5 uM. […] Automated image analysis was performed with a script developed on Acapella High Content Imaging and Analysis Software (PerkinElmer). Output: Average number of amastigotes per macrophage cell were reported for each well.
Type: functional, organism-based, Homo sapiens
APPLIED CONDITIONS: THP-1
Give the value, in units of µM, as a plain number.

Write down IC50 measured for item COc1ccc(Nc2nc(N[C@H]3CC[C@H](O)CC3)ncc2Br)c(C(N)=O)c1
0.631

Write down IC50 measured for item COc1cc(C2SCC(=O)Nc3c2c(C)nn3-c2nc3ccccc3s2)cc(OC)c1O (configuration not stated)
0.251

Write down IC50 measured for item O=C(NCCc1ccccn1)C(c1cn[nH]c1)N1CCN(c2ccc(Cl)c(Cl)c2)CC1 (configuration not stated)
20

Write down IC50 measured for item COCc1cnc2c(c1SCc1c(F)cccc1Cl)c(=O)n(C)c(=O)n2C
5.01

Write down IC50 measured for item O=C(NCCCn1cnc2ccccc21)c1ccc(NC(=O)c2ccco2)cc1
12.6

Write down IC50 measured for item Cc1ccccc1CNC(=O)CN(Cc1ccccn1)Cc1ccccn1
3.98

Write down IC50 measured for item O=C(CSc1nnc(-c2ccc3c(c2)OCO3)o1)N(Cc1ccco1)CC(F)(F)F
3.16

Write down IC50 measured for item NS(=O)(=O)c1ccc(Nc2ncc3cccc(OC4CCNCC4)c3n2)cc1
15.8

Write down IC50 measured for item COc1ccc2nc(N(Cc3cccnc3)C(=O)C3CCC3)sc2c1
50.1

Write down IC50 measured for item NS(=O)(=O)c1ccc(Nc2nccc(-c3cnn4ncccc34)n2)cc1
1

Write down IC50 measured for item COc1ccc(Nc2nccc(N(C)c3n[nH]c4c(F)cccc34)n2)cc1S(C)(=O)=O
1

Write down IC50 measured for item Cc1ccccc1CNc1cc(C2CC2)nc(-c2nccn2C)n1
0.631

Write down IC50 measured for item CC(C)Nc1nc(Cl)nc2ccccc12
1.26

Write down IC50 measured for item C[C@@H](Oc1cc(-n2cnc3cc(N)ccc32)sc1C(N)=O)c1ccccc1Cl
20

Write down IC50 measured for item COc1ccc(-c2csc(NC(=O)c3ccc([N+](=O)[O-])s3)n2)cc1OC
1.26

====

Test system: Trypanosoma cruzi
ASSAY DETAILS: GSK_TCAKS: pIC50 Trypanosoma cruzi Imaging: Amastigotes/Cell. […] Cells were then washed once with PBS before infection. T. cruzi trypomastigotes, collected at days 5 to 8 after infection from LLC-MK2 parasite infected cultures, were allowed to swim out for 4h at 37C from a centrifuged pellet (2,500 rpm/10 min/room temperature). Trypomastigotes were then collected and counted in a CASY Cell Counter. Trypomastigotes, in supplemented DMEM, were added to H9c2 cultures in a multiplicity of infection of 1 and incubated for 18 h. Cells were washed once with PBS before incubation of the infected H9c2 monolayer with trypsin (Life-Technologies) to detach cells from the flask. Cells were counted in a CASY Cell Counter using a 150 um capillary and their density set at 5 * 10^4 cells per mL in supplemented assay DMEM. Infected H9c2 were dispensed into 384-well poly-lysine coated assay plates at 50uL per well using a Multidrop Combi dispenser. After seeding them, the plates were incubated at 37C, 5% CO2 for 72h. Cultures were then fixed and stained by addition of 50 uL of a solution containing 8% formaldehyde and 4 uM DRAQ5 DNA dye (BioStatus, UK) per well. […] Five images were collected per well for reliable statistical analysis. Automated image analysis was performed with a script developed on Acapella High Content Imaging and Analysis Software (PerkinElmer). Output: number of amastigotes per cell as infection level measurement.
Assay type: functional, organism-based, Rattus norvegicus
APPLIED CONDITIONS: H9c2, 4 h
Friendly reminder: IC50 below 0.6 µM is True, at or above is False.

c1ccc2[nH]c(-c3ccc(N4CCCC4)nc3)nc2c1 = False

Dear reviewer, please state whether O=C(Nc1ccc(Br)c(Cl)c1)Nc1ccc2c(c1)OCO2 has IC50 strictly beneath 0.6 µM.
False

Dear reviewer, please state whether c1ccc(CCNCc2cncc3nc(-c4cnccn4)n(C4CCCCC4)c23)cc1 has IC50 strictly beneath 0.6 µM.
True

Hey, just so you know, these numbers are from ChEMBL document CHEMBL3430912.
